Hello, the source for this data is patent US20180044434A1, in case you need it.

- experimental.target: T1, Ala mutant having 3-amino acid substitution, SEQ ID NO: 45
- T1 peptide: EENAAAQWMQDEMEIGY
- test.name: ELISA, coated peptide
metric.name: OD 490/630 nm

Dear colleague, could you send me OD 490/630 nm for each of the items below? Thanks.
1. E9 (antibody, V domains shown, Chicken variable regions in a mouse chimeric antibody (IgG1); also called anti-PAD4 antibody E9) VH: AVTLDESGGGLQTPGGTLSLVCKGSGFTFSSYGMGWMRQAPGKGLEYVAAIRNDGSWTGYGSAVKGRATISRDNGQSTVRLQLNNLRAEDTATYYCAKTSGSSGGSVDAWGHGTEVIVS VL: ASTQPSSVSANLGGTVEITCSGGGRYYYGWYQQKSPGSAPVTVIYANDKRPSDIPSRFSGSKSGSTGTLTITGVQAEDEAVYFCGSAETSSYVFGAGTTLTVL
2. A11 (antibody, V domains shown, Chicken variable regions in a mouse chimeric antibody (IgG1); also called anti-PAD4 antibody A11) VH: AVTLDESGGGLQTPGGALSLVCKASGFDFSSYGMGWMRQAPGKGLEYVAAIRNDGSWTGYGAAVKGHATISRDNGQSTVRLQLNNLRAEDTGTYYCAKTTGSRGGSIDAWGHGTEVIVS VL: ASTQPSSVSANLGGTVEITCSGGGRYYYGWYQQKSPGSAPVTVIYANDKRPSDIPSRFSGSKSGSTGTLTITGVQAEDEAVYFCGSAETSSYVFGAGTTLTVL
3. H7 (antibody, V domains shown, Chicken variable regions in a mouse chimeric antibody (IgG1); also called anti-PAD4 antibody H7) VH: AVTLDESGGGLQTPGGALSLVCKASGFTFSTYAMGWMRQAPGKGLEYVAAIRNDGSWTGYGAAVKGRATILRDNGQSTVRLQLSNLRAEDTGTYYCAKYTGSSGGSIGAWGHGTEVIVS VL: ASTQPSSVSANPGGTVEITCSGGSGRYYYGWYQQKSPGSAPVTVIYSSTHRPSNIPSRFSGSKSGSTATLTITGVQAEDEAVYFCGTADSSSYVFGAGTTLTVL

0.022
0.039
0.016
